// provenance: paper PMC5540273

%Inh values for the molecules below.
# Tested on: WNK3
# ASSAY_SETUP: concentration: 1 μM, replicates: in singlicate; n = 1;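 also: KINOMEscan kinase panel screen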
EXPERIMENTAL_ENDPOINT: %Inh (%)

>>> data_value("Cn1ccc2ncnc(Oc3cccc(C(=O)Nc4ccccc4)c3)c21")
0
>>> data_value("COc1ccc(Nc2nccc(-c3cccc(NC(=O)c4cc5cc(F)ccc5[nH]4)c3)n2)cc1")
31
>>> data_value("Cc1cccc(-c2nc(Nc3cccc(C(N)=O)c3)c3ccccc3n2)n1")
0

----------
Measured %Inh of individual entries
# Test system: ACVR2B
# ASSAY_SETUP: concentration: 1 μM, replicates: in singlicate; n = 1
EXPERIMENTAL_ENDPOINT: %Inh

>>> data_value("CCn1c(-c2ccccn2)nc2cnccc21 [SB-736398]")
"0%"
>>> data_value("CN(C)CCN(C)C(=O)c1cc(-c2ccncc2)c(-c2ccc(Cl)c(O)c2)o1.Cl.Cl [SB-710397]")
"9%"
>>> data_value("COc1ccc(C2=C(Nc3cccc(C(=O)O)c3)C(=O)NC2=O)cc1 [SB-390765]")
"0%"
>>> data_value("Cc1ccccc1-n1cnc2c(N)ncnc21 [SKF-97510]")
"0%"
>>> data_value("C[C@@H]1CCCCN1c1cc(-c2ccc3c(N)n[nH]c3c2)nc(N)n1 [GSK2258759]")
"0%"
>>> data_value("Cn1ccc2ncnc(Oc3cccc(C(=O)Nc4ccccc4)c3)c21")
"1%"

----------
# Test system: DYRK1A
# ASSAY_SETUP: concentration: 1 μM, replicates: in singlicate; n = 1
EXPERIMENTAL_ENDPOINT: %Inh (%)

>>> data_value("Cc1cccc(-c2nc(C)cc(Nc3ccncc3)n2)n1 [GSK257997]")
6
>>> data_value("COc1ccc(CNC(=O)NC2CCN(c3ccnc(Nc4cc(OC)c(OC)c(OC)c4)n3)C2)cc1 (stereo not shown) [GSK1379748]")
6
>>> data_value("Cl.NC(=O)c1cccc(Nc2nccc(Nc3ccc(Oc4cccc(Cl)c4)c(Cl)c3)n2)c1 [GW659008]")
5
>>> data_value("Cc1cccc(-c2cc(Nc3ccncc3)c3ccccc3n2)n1 [GSK223675]")
8
>>> data_value("COc1ccccc1-c1ccc2c(NC(=O)C3CC3)n[nH]c2n1 [SB-711239]")
12
>>> data_value("O=c1cc(N2CCOCC2)nc2n(Cc3cccc(Cl)c3Cl)ccn12 [GSK2286295]")
14
>>> data_value("Cc1cc(-c2ccc3c(c2)CC[C@@H](N[C@@H](C)c2ccccc2)C3)cnc1N.Cl [GW412617]")
19
>>> data_value("Clc1cc(Cl)cc(Nc2ccnc(Nc3cc(Cl)cc(Cl)c3)n2)c1 [GSK175726]")
0
>>> data_value("COc1ccc(Nc2nccc(NCCNC(=O)Nc3ccccc3F)n2)cc1 [GSK1379901]")
19
>>> data_value("COc1cc2ncn(-c3cc(OCC4CCCO4)c(C(N)=O)s3)c2cc1OC (stereo not shown) [GSK204607]")
0
>>> data_value("Cc1ccc(-c2cc(-c3c[nH]nc3-c3ccccn3)ccn2)cc1 [GW684088]")
11
>>> data_value("Cl.c1ccc(-c2n[nH]cc2-c2ccnc(-c3ccc(CN4CCOCC4)cc3)c2)nc1 [GW776245]")
0
>>> data_value("Cc1ccc(NC(=O)Nc2cccc(Cl)c2)cc1-c1ccc(C(=O)Nc2ccncc2)cc1 [GSK1398468]")
1
>>> data_value("Cc1ccc(NC(=O)Nc2cc(C(C)(C)C)nn2-c2ccccc2)cc1 [GSK1014915]")
33
>>> data_value("COc1cc2nccc(Nc3ccc(NC(=O)c4ccc(C)cc4)c(O)c3)c2cc1OC.Cl [GW440132]")
11
>>> data_value("Cn1cncc1-c1ccc2ncnc(Nc3ccc(OCc4ccccc4)cc3)c2c1 [GW320571]")
12
>>> data_value("CC1=C(C(=O)Nc2cc3cn[nH]c3cc2F)C(c2ccc(C(F)(F)F)cc2)CC(=O)N1 (stereo not shown) [GSK429286]")
21
>>> data_value("Cc1ccccc1-n1cnc2c(N)ncnc21 [SKF-97510]")
0
>>> data_value("Cc1cc(NCC(c2ccccc2)c2ccccc2)nc(NCc2ccc(C(F)(F)F)cc2)n1 [GW497681]")
0
>>> data_value("CC(C)(C)c1ccc(C(=O)Nc2cn3cc(-c4cccnc4)ccc3n2)cc1")
42
>>> data_value("COc1ccccc1CNC(=O)c1cc(C(=O)c2ccccc2C)c[nH]1 [GSK364507]")
17
>>> data_value("O=C1NC(=O)C(N2CCc3ccccc32)=C1c1ccccc1Cl [SB-373598]")
18
